Hey, just so you know, these numbers are from PubChem BioAssay AID1159580.

test: chemical genetic growth profiling, strain panel (AID 1159580);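 note: tested at 20 µM; growth read once vehicle control cultures reached saturation at 30 °C; 1 = growth at the plate median or of vehicle wells; lower values mean less growth of the strain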; conditions: S. cerevisiae deletion strains, growth OD, locus YNL071W, strain lat1, hits give low values
Among all 5,500 compounds or so, about 2,000 (36%) were called active. Another 18% or so got no clear call; they are omitted. Some of the results follow.
result-type: normalized growth
Numbers only.

molecule: COc1c(Cl)ccc(Cl)c1C(=O)O
normalized growth: 0.992

Go through the items and report each one's normalized growth.
1. CC(=O)Nc1ccccc1
2. CCN(CC)C(C)CN1c2ccccc2Sc2ccccc21 (centres undefined)
3. c1ccc2c(c1)CN1CCCC1=N2
4. CSc1ccc2c(c1)N(CCC1CCCCN1C)c1ccccc1S2 (centres undefined)
5. Clc1ccc2c(c1)C(N1CCNCC1)=Nc1ccccc1O2
6. CN(C)CCOC(=O)C(c1ccccc1)C1(O)CCCC1 (centres undefined)
7. CC1=C2[C@H]3OC(=O)[C@@H](C)[C@@H]3CC[C@@]2(C)C=CC1=O

Given back:
0.976
0.99
1.01
1.05
0.972
1.01
0.994

Go through the items and report each one's normalized growth.
1. COc1cc(C)c(C(=O)Oc2cc(C)c(C(=O)O)c(O)c2C)c(OC)c1C
2. COc1cc([C@@H]2c3cc4c(cc3[C@H](OC(C)=O)[C@H]3COC(=O)[C@@H]23)OCO4)cc(OC)c1OC
3. C=C1C2=CC(=O)O[C@@H](c3ccoc3)[C@]2(C)CCC1[C@@]1(C)C=CC(=O)C(C)(C)[C@@H]1CC(=O)OC (some centres undefined)
4. S=P(N1CC1)(N1CC1)N1CC1
5. N#C/C(=C\c1cccc(O)c1)C(=O)O
6. O=[N+]([O-])c1cccc2cn[nH]c12
7. O=c1cc(-c2ccccc2)oc2cccc(O)c12
8. CN[C@@H]1[C@H](OC2[C@H](O[C@H]3[C@H](O)[C@@H](O)[C@H](N=C(N)N)[C@@H](O)[C@@H]3N=C(N)N)O[C@@H](C)[C@]2(O)C=O)O[C@@H](CO)[C@H](O)[C@H]1O (some centres undefined)

Given back:
1: 0.869; 2: 0.991; 3: 0.996; 4: 1.02; 5: 0.997; 6: 1.01; 7: 0.62; 8: 0.992

Go through the items and report each one's normalized growth.
1. Nc1cc(-c2ccncc2)c[nH]c1=O
2. C=C1C2CCC3(C)C(c4ccoc4)OC(=O)CC13OC1CC(OC(C)=O)C(C)(C)C(CC(=O)OC)C12C (centres undefined)
3. O=[N+]([O-])c1cccc2c(Br)[nH]nc12
4. N[C@@H]1[C@@H](O)[C@H](O)[C@@H](CO)O[C@H]1O
5. C=C[C@H]1CN2CC[C@H]1C[C@@H]2[C@H](O)c1ccnc2ccccc12
6. C[C@]12C=CC(=O)C=C1CCC1C3C[C@@H](O)[C@](O)(C(=O)CO)[C@@]3(C)C[C@H](O)[C@@]12F (some centres undefined)
7. NS(=O)(=O)c1cc2c(cc1Cl)NC(C1CC3C=CC1C3)NS2(=O)=O (centres undefined)

Given back:
1: 0.39; 2: 1.01; 3: 0.982; 4: 1.03; 5: 0.988; 6: 0.983; 7: 0.986

Go through the items and report each one's normalized growth.
1. CC(CN(C)C)CN1c2ccccc2Sc2ccccc21 (centres undefined)
2. CCCC(CCC)C(=O)O
3. OC[C@H]1OC([S-])[C@H](O)[C@@H](O)[C@@H]1O.[Au+] (some centres undefined)
4. C[C@@H](N)[C@@H](O)c1ccccc1
5. CN(C)N=Nc1nc[nH]c1C(N)=O
6. CNCCCN1c2ccccc2CCc2ccccc21
7. C=C1C(C2(C)C=CC(=O)C(C)(C)C2CC(=O)OC)CC[C@@]2(C)[C@H](c3ccoc3)OC(=O)C3OC132 (some centres undefined)
8. C[C@H](N)[C@H](O)c1cccc(O)c1

Given back:
[1.02, 1.01, 1, 0.989, 0.986, 0.994, 0.999, 0.997]
